Test system: NCI-H322M lung
Assay: NCI-60 one-dose screen, 48 h
Details: 10 µM unless noted
This is part of a sample that, as a whole, favours compounds with a hit. Of some 83,000 tested, about 20% had one in any assay. The source made the active and inactive calls. Rule for the calls: active = growth percent below 10; inactive = the rest.
Write down one outcome, taken from active, inactive

>  <molecule>
COc1cc2ccccc2cc1C(=O)NC(=S)Nc1ccc(-c2nc3ccccc3[nH]2)cc1

>  <classAssignment>
inactive

$$$$
>  <molecule>
N#Cc1c(NC(=O)c2ccccc2I)sc2c1CCCC2

>  <classAssignment>
inactive

$$$$
>  <molecule>
CN1CCN(c2ccc(Nc3ncc(Cl)c(NC[C@@H]4CCCO4)n3)cc2)CC1

>  <classAssignment>
inactive

$$$$

// query Recorded call for O=C(Nc1ccccc1Cl)OCCN1CCOCC1 ?
// result inactive

// query Recorded call for CCOC(=O)c1c(C)nc2c(c1N)/C(=C/c1ccc(OC)cc1)C(=O)N2Cc1ccc(F)cc1 ?
// result active

// query Recorded call for Nc1ccn(C2OC(F)(CO)C(O)C2F)c(=O)n1 (stereo unspecified) ?
// result inactive

// query Recorded call for COc1ccc(-c2cc(-c3cc(OC)ccc3O)[nH]c(=O)c2C#N)cc1 ?
// result inactive

// query Recorded call for O=C(CCc1nc(-c2cccc(Cl)c2)no1)Nc1ccccn1 ?
// result inactive

// query Recorded call for Cc1cc(NS(=O)(=O)c2ccccc2)c(OS(=O)(=O)c2ccccc2)cc1C ?
// result inactive

// query Recorded call for CN1C(=O)CCC(N2C(=O)c3cccc(NCCOCCOCCNC(=O)c4cc5c(o4)C(=O)c4ccccc4C5=O)c3C2=O)C1=O (stereo unspecified) ?
// result active

// query Recorded call for CCCCCCNC(=O)c1cc(NCc2cc(O)ccc2O)ccc1O ?
// result inactive

// query Recorded call for Cc1cc(C)on1 ?
// result inactive

// query Recorded call for CC[C@]1(O)C[C@H]2CN(CCc3c([nH]c4ccccc34)[C@@](C(=O)OC)(c3cc4c(cc3OC)N(C=O)[C@H]3[C@@](O)(C(=O)OC)[C@H](OC(C)=O)[C@]5(CC)C=CCN6CC[C@]43[C@@H]65)C2)C1 ?
// result inactive

// query Recorded call for C=C1C(=O)O[C@H]2[C@H]1CC/C(COC(=O)/C=C\C(=O)NCc1ccc(Cn3c(=O)sn(-c4ccc(OC)cc4)c3=O)cc1)=C\CC[C@@]1(C)O[C@@H]21 ?
// result inactive

// query Recorded call for CCOC(=O)c1nnn(-c2ccccc2)c1C1=CN(C)CCC1 ?
// result inactive

// query Recorded call for Cc1nn(-c2ccccc2)c2c1C(c1ccc([N+](=O)[O-])cc1)C(C#N)=C(N)O2 (stereo unspecified) ?
// result inactive

// query Recorded call for O=[N+]([O-])c1ccc(-c2cc3c(Nc4ccc(OCc5cccc(Cl)c5)c(Cl)c4)ncnc3s2)cc1 ?
// result inactive

// query Recorded call for Cn1ncc2c(Nc3ccc(Br)cc3)nc(Nc3ccc(Br)cc3)nc21 ?
// result inactive

// query Recorded call for C=C1C(=O)O[C@H]2[C@H]1CC/C(COC(=O)/C=C/C(=O)NCc1ccc(Cn3c(=O)sn(-c4ccccc4)c3=O)cc1)=C\CC[C@@]1(C)O[C@@H]21 ?
// result inactive

// query Recorded call for CCN(CC)S(=O)(=O)c1ccc(O)c(NC(=O)c2[nH]c(C)c(C(C)=O)c2CCc2ccc(Cl)cc2)c1 ?
// result inactive

---

System: UACC-257 melanoma
Assay: NCI-60 one-dose screen, 48 h
Conditions: 10 µM unless noted
About 83,000 compounds went through this panel and 20% of them were active in at least one assay; those are over-represented in the sample as a whole. Active and inactive are the calls of the source. The calls were made as follows: active = growth percent below 10; inactive = the rest.
Write down one outcome, taken from t for active, f for inactive

>  <molecule>
Nc1c(C(=O)Nc2ccccc2)sc2nc3c(cc12)CCCCCC3

>  <systemName>
UACC-257 melanoma

>  <classAssignment>
f

$$$$
>  <molecule>
O=C(O)c1ccccc1C(=O)Nc1ccc(Cl)cc1

>  <systemName>
UACC-257 melanoma

>  <classAssignment>
f

$$$$
>  <molecule>
O=C1Nc2ccccc2/C1=N/N=C/c1ccsc1

>  <systemName>
UACC-257 melanoma

>  <classAssignment>
f

$$$$
>  <molecule>
CCCCCOC(=O)c1ccc(NC(=O)CNCC(C)C)cc1

>  <systemName>
UACC-257 melanoma

>  <classAssignment>
f

$$$$
>  <molecule>
O=C1CCC(N2C(=O)c3cccc(NCCCC4CCN(CCNC(=O)c5cc6c(o5)C(=O)c5ccccc5C6=O)CC4)c3C2=O)C(=O)N1 (stereo not given)

>  <systemName>
UACC-257 melanoma

>  <classAssignment>
t

$$$$
>  <molecule>
Cc1cc(-c2ccc(N(C)C)cc2)c2sc(=O)[nH]c2n1

>  <systemName>
UACC-257 melanoma

>  <classAssignment>
f

$$$$
>  <molecule>
C=C1C(=O)O[C@H]2[C@H]1CC/C(COC(=O)/C=C\C(=O)NCc1ccc(Cn3c(=O)sn(-c4ccc(Cl)cc4)c3=O)cc1)=C\CC[C@@]1(C)O[C@@H]21

>  <systemName>
UACC-257 melanoma

>  <classAssignment>
t

$$$$
>  <molecule>
CCCCOc1ccc(NC(=O)n2nc(N=NN(C)C)c3ccc(Cl)cc32)cc1

>  <systemName>
UACC-257 melanoma

>  <classAssignment>
f

$$$$
>  <molecule>
COc1ccc(/C(C)=C(\c2ccc(Cl)cc2)c2ccc(OCCN3CCCCCC3)cc2)cc1F

>  <systemName>
UACC-257 melanoma

>  <classAssignment>
f

$$$$
>  <molecule>
C#C[C@]1(O)CC[C@H]2[C@@H]3CC=C4c5sc(N=C(N)N)nc5CC[C@]4(C)[C@H]3CC[C@@]21C

>  <systemName>
UACC-257 melanoma

>  <classAssignment>
t

$$$$

// query Recorded call for Cc1nn(Cc2ccccc2)cc1C(=O)Nc1sc2c(c1C(N)=O)CCC(=O)C2 ?
// result f

// query Recorded call for COc1cc2c(O)n(CCCn3ccnc3)c3c4cnc5cccc(c(=O)c3c2cc1OC)c54 ?
// result f

---

System: HOP-92 NSCLC
Assay: NCI-60 one-dose screen, 48 h (100 = growth as untreated, 0 = no growth, -100 = all killed)
Conditions: 10 µM unless noted
Compounds without any hit were thinned out: in the full panel of roughly 83,000, 20% have a hit.
Decide by growth: equal to or exceeding 80% means 1, less means -1.

>  <compound>
CCCCCCCC/C=C/CCCCCCCC1=NCC[N+]1(CCO)CCO

>  <classAssignment>
-1

$$$$
>  <compound>
COc1ccc(C(=O)/C=C/C23c4ccccc4C(c4ccccc42)C2C(=O)NC(=O)C23)cc1 (centres undefined)

>  <classAssignment>
1

$$$$
>  <compound>
COc1cc2ccccc2cc1C(=O)NC(=S)Nc1ccc(-c2nc3ccccc3[nH]2)cc1

>  <classAssignment>
1

$$$$

// query Given COc1cc2c(cc1OC)-c1ccc3cc4c(cc3c1N(CCN(C)C)C2)OCO4 , state whether its growth is at least 80%.
// result -1

// query Given CC[C@@H](C[C@H](CCO)c1ccccc1)c1cc2ccccc2o1 , state whether its growth is at least 80%.
// result 1

// query Given CC(C)n1nc(C#Cc2cccc(NC(=O)c3cccc(C(F)(F)F)c3)c2)c2c(N)ncnc21 , state whether its growth is at least 80%.
// result -1

// query Given CCCCOC(=O)c1ccc(NC(=O)C(C)N2CCOCC2)cc1 (centres undefined) , state whether its growth is at least 80%.
// result -1

// query Given CCOc1cc(N)ccc1C(=O)NCCCN(CC)CC , state whether its growth is at least 80%.
// result 1

// query Given COc1ccc(OC)c(Nc2nc3nonc3nc2Nc2cc(OC)ccc2OC)c1 , state whether its growth is at least 80%.
// result -1

// query Given COc1ccc(Oc2nc(Nc3ccc(N4CCCCC4)nc3)ncc2NC(=O)c2cc(OC)cc(OC)c2)cc1 , state whether its growth is at least 80%.
// result -1

// query Given Clc1ccc(-c2nnc(Cn3ccnc3)o2)cc1 , state whether its growth is at least 80%.
// result 1

---

Each entry below carries its recorded growth.
System: 786-0 renal
Experiment: NCI-60 one-dose screen, 48 h (100 = growth as untreated, 0 = no growth, -100 = all killed)
Conditions: 10 µM unless noted
About 83,000 compounds went through this panel and 20% of them were active in at least one assay; those are over-represented in the sample as a whole. Activity calls are given as the source filed them. How the source made its calls: active means growth percent below 10; inactive means the rest.

Below, 5 molecules whose answers are already recorded.
>  <molecule>
Cc1ccc(S(=O)(=O)N(CC[C@@H]2C[C@H]2c2cc3ccccc3o2)C(=O)NC2CCCCC2)cc1

>  <growth>
95.4% (inactive)

$$$$
>  <molecule>
COc1cccc(CCC2CCCN(c3cc(C)nc(N)n3)C2)c1 (centres undefined)

>  <growth>
19% (inactive)

$$$$
>  <molecule>
CN1C[C@@H](c2ccc(Cl)cc2)[C@]2(NC(=S)N(c3ccccc3)C2=O)[C@@]12C(=O)NC1C=CC(Br)=C[C@H]12 (some centres undefined)

>  <growth>
54.3% (inactive)

$$$$
>  <molecule>
CC(=O)C(C(C)=O)c1nc2sc3cc(Cl)ccc3n2c(=N)c1C#N

>  <growth>
98.3% (inactive)

$$$$
>  <molecule>
COc1ccc(C(=O)/C=C/c2cc3c(c(OC)c2)OCC(=O)N3)cc1

>  <growth>
14.5% (inactive)

$$$$

// query I would be grateful if you could share the reported growth for CCNCCNc1cc(-c2cccc(C(F)(F)F)c2)c(C#N)c2nc3ccccc3n12 .
// result -88% (active)

// query I would be grateful if you could share the reported growth for CCn1c(Sc2nnc(Nc3ccccc3)s2)nc2c1c(=O)n(C)c(=O)n2C .
// result 93.2% (inactive)

// query I would be grateful if you could share the reported growth for COc1cc(C2CC(c3ccc(Nc4nc(Nc5ccc(F)cc5)nc(Nc5ccc(Cl)cc5)n4)cc3)=NN2C(C)=O)cc(OC)c1OC (centres undefined) .
// result 87.2% (inactive)

// query I would be grateful if you could share the reported growth for Cc1c(C)c2c(c(C)c1NC(=O)/C=C\C(=O)O)CCC(C)(CCCC(C)CCCC(C)CCCC(C)C)O2 (centres undefined) .
// result 33.5% (inactive)

// query I would be grateful if you could share the reported growth for CCNCCNc1cc(C2CCCC2)c(C#N)c2nc3ccccc3n12 .
// result 20% (inactive)

// query I would be grateful if you could share the reported growth for CC(C)(C)Nc1c(-c2c3ccccc3cc3ccccc23)nc2ccccn12 .
// result 72% (inactive)

// query I would be grateful if you could share the reported growth for N#Cc1cnn2c(-c3ccc(Cl)cc3)nc(NC3CC3)nc12 .
// result 89.8% (inactive)

// query I would be grateful if you could share the reported growth for Cc1ccc(S(=O)(=O)NN/C(N)=N\S(=O)(=O)c2cc(C)c(Cl)cc2SCc2ccccc2)cc1 .
// result 93.4% (inactive)

// query I would be grateful if you could share the reported growth for CC12CC(C#N)CCC1O2 (centres undefined) .
// result 102% (inactive)
